- TEST TARGET: human α-2C (c4 gene) (Homo sapiens, UniProt P18825)
- Construct: expressed in transfected cells; host or cells: NIH-3T3
- Sequence (P18825 whole entry): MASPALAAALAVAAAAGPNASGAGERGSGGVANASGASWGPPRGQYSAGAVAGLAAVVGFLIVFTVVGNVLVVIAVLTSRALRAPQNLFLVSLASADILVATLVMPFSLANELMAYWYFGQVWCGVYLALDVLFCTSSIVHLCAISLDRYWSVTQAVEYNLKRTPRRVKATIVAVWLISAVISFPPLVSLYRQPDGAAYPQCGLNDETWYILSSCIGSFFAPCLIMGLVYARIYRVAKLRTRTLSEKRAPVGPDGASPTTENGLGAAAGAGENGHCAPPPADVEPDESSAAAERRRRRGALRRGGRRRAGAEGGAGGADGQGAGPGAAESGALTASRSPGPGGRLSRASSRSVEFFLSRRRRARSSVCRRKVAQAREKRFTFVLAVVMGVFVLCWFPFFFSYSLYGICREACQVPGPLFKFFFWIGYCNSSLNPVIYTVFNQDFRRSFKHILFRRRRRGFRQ
- MEASUREMENT PROTOCOL: RSAT assay, α-2C receptor
- Assay type: cell-based
- REPORTED CONDITIONS: NA = not active (EC50 ≧ 10,000)
In this section, each of the compounds is paired with its reported EC50.
Please state the figure in nM; there is no need to write the unit.

Kindly note the recorded EC50 for O=c1[nH]cc(CC2CCc3cc(F)ccc32)[nH]1 (stereo not drawn) , which is 202

GET /value?item= S=c1[nH]cc(CC2CC=CC2)[nH]1 &field=EC50 returns 247

---

Quick list: EC50 per entry.
- TEST TARGET: rat α-2B (RNG gene) (Rattus norvegicus)
- Construct: expressed in transfected cells; host or cells: NIH-3T3
- Sequence (P19328 1-453): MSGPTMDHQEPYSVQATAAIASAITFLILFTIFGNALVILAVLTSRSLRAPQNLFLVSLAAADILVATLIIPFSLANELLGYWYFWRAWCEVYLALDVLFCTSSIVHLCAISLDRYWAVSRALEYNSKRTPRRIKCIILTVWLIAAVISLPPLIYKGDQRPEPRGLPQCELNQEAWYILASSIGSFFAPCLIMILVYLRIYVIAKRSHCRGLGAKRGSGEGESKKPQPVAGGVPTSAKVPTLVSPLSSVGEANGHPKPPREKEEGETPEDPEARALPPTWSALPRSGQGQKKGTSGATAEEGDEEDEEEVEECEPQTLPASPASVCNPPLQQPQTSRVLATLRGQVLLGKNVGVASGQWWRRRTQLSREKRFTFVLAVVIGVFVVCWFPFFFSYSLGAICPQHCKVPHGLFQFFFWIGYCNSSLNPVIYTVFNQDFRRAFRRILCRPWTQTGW
- MEASUREMENT PROTOCOL: RSAT assay, α-2B receptor
- Type: cell-based
- REPORTED CONDITIONS: NA = not active (EC50 ≧ 10,000)
Answer with the number, then the unit.

[
  {
    "COMPOUND": "S=c1[nH]cc(CC2CC=CC2)[nH]1",
    "EC50": "42 nM"
  },
  {
    "COMPOUND": "O=C1c2ccccc2CCC1Cc1c[nH]c(=S)[nH]1 (racemic)",
    "EC50": "24 nM"
  }
]

In the following, a different compound is considered.
Entry O=c1[nH]cc(CC2CCc3cc(F)ccc32)[nH]1 (stereo not drawn) , EC50 reported as 15 nM

Just for reference, patent US7345065B2 is where these values come from.
